- Test system: pronase
- Assay Procedure: Proteolytic stability against pronase digestion (HPLC)
- Assay type: in vitro ADME, Streptomyces griseus K-1
- Set-up: key: +: Pronase stable; ++: Intermediate Pronase stability; +++: Pronase unstable
- Condition Notes: pH 7.8, 37° C., 18 h, 400 μM compound

Molecule	Pronase Degradation (pH 7.8)
C[C@@H](C(=O)N(C)[C@@H](C)C(=O)N(C)[C@@H](C)C(=O)NCCNC(=O)CCCOc1cccc(-c2nc3cc(-c4nc5cc(N6CCN(C)CC6)ccc5[nH]4)ccc3[nH]2)c1)N(C)C(=O)CCCOc1cccc(-c2nc3ccc(-c4nc5cc(N6CCN(C)CC6)ccc5[nH]4)cc3[nH]2)c1 [Compound 2H-3NMe]	+++
CCCN(C(=O)CCCOc1cccc(-c2nc3ccc(-c4nc5cc(N6CCN(C)CC6)ccc5[nH]4)cc3[nH]2)c1)[C@H](C)C(=O)N(CCC)[C@H](C)C(=O)N(CCC)[C@H](C)C(=O)NCCNC(=O)CCCOc1cccc(-c2nc3cc(-c4nc5cc(N6CCN(C)CC6)ccc5[nH]4)ccc3[nH]2)c1 [Compound 2H-3NPr]	++
C[C@H](NC(=O)CCCOc1cccc(-c2nc3ccc(-c4nc5cc(N6CCN(C)CC6)ccc5[nH]4)cc3[nH]2)c1)C(=O)N[C@@H](C)C(=O)N[C@@H](C)C(=O)N[C@@H](C)C(=O)N[C@@H](CCCCNC(=O)CCCOc1cccc(-c2nc3cc(-c4nc5cc(N6CCN(C)CC6)ccc5[nH]4)ccc3[nH]2)c1)C(N)=O [Compound 2H-K4NH]	+++

###

- Tested on: pronase
- Assay Procedure: Proteolytic stability against pronase digestion (HPLC)
- Assay type: in vitro ADME, Streptomyces griseus K-1
- Set-up: key: +: Pronase stable; ++: Intermediate Pronase stability; +++: Pronase unstable
- Condition Notes: pH 9.0, 37° C., 18 h, 400 μM compound
- Protocol: Proteolytic stability of second and third generation compounds was assessed using pronase as previously described.^3 Pronase is a group of≧10 proteases isolated from Streptomyces griseus K-1. As such, proteolytic degradation was measured at two pH's, 7.8 and 9.0. […] Reactions were quenched by addition of 4 μL of 25% acetic acid, and the products of the pronase digestion were analyzed by HPLC. […]

Molecule	System	Pronase Degradation (pH 9)
C[C@@H](C(=O)N(C)[C@@H](C)C(=O)N(C)[C@@H](C)C(=O)N(C)[C@@H](C)C(=O)N[C@@H](CCCCNC(=O)CCCOc1cccc(-c2nc3cc(-c4nc5cc(N6CCN(C)CC6)ccc5[nH]4)ccc3[nH]2)c1)C(N)=O)N(C)C(=O)CCCOc1cccc(-c2nc3ccc(-c4nc5cc(N6CCN(C)CC6)ccc5[nH]4)cc3[nH]2)c1 [Compound 2H-K4NMe]	pronase	++
C[C@@H](C(=O)N(C)[C@@H](C)C(=O)N(C)[C@@H](C)C(=O)NCCNC(=O)CCCOc1cccc(-c2nc3cc(-c4nc5cc(N6CCN(C)CC6)ccc5[nH]4)ccc3[nH]2)c1)N(C)C(=O)CCCOc1cccc(-c2nc3ccc(-c4nc5cc(N6CCN(C)CC6)ccc5[nH]4)cc3[nH]2)c1 [Compound 2H-3NMe]	pronase	+++
CCCN(C(=O)CCCOc1cccc(-c2nc3ccc(-c4nc5cc(N6CCN(C)CC6)ccc5[nH]4)cc3[nH]2)c1)[C@H](C)C(=O)N(CCC)[C@H](C)C(=O)N(CCC)[C@H](C)C(=O)NCCNC(=O)CCCOc1cccc(-c2nc3cc(-c4nc5cc(N6CCN(C)CC6)ccc5[nH]4)ccc3[nH]2)c1 [Compound 2H-3NPr]	pronase	++

###

- Test system: pronase
- Assay Procedure: Proteolytic stability against pronase digestion (HPLC)
- Assay type: in vitro ADME, Streptomyces griseus K-1
- Set-up: key: +: Pronase stable; ++: Intermediate Pronase stability; +++: Pronase unstable
- Condition Notes: pH 9.0, 37° C., 18 h, 400 μM compound
- Description: Proteolytic stability of second and third generation compounds was assessed using pronase as previously described.^3 Pronase is a group of≧10 proteases isolated from Streptomyces griseus K-1. As such, proteolytic degradation was measured at two pH's, 7.8 and 9.0. […] Reactions were quenched by addition of 4 μL of 25% acetic acid, and the products of the pronase digestion were analyzed by HPLC. […]

Chemical Structure	Pronase Degradation (pH 9)
CCCN(C(=O)CCCOc1cccc(-c2nc3ccc(-c4nc5cc(N6CCN(C)CC6)ccc5[nH]4)cc3[nH]2)c1)[C@H](C)C(=O)N(CCC)[C@H](C)C(=O)N(CCC)[C@H](C)C(=O)N(CCC)[C@H](C)C(=O)N[C@@H](CCCCNC(=O)CCCOc1cccc(-c2nc3cc(-c4nc5cc(N6CCN(C)CC6)ccc5[nH]4)ccc3[nH]2)c1)C(N)=O	++
CCCN(CC(=O)N[C@@H](CCCCNC(=O)CCCOc1cccc(-c2nc3cc(-c4nc5cc(N6CCN(C)CC6)ccc5[nH]4)ccc3[nH]2)c1)C(N)=O)C(=O)CN(CCC)C(=O)CN(CCC)C(=O)CN(CCC)C(=O)CCCOc1cccc(-c2nc3ccc(-c4nc5cc(N6CCN(C)CC6)ccc5[nH]4)cc3[nH]2)c1	++

###

- Tested on: pronase
- Assay Procedure: Proteolytic stability against pronase digestion (HPLC)
- Assay type: in vitro ADME, Streptomyces griseus K-1
- Parameters: key: +: Pronase stable; ++: Intermediate Pronase stability; +++: Pronase unstable
- Condition Notes: pH 9.0, 37° C., 18 h, 400 μM compound
- Method: Proteolytic stability of second and third generation compounds was assessed using pronase as previously described.^3 Pronase is a group of≧10 proteases isolated from Streptomyces griseus K-1. As such, proteolytic degradation was measured at two pH's, 7.8 and 9.0. […] Reactions were quenched by addition of 4 μL of 25% acetic acid, and the products of the pronase digestion were analyzed by HPLC. […]

Compound	Pronase Degradation (pH 9)
CN1CCN(c2ccc3nc(-c4ccc5nc(-c6cccc(OCCCC(=O)NCCNC(=O)CNC(=O)CNC(=O)CNC(=O)CCCOc7cccc(-c8nc9ccc(-c%10nc%11ccc(N%12CCN(C)CC%12)cc%11[nH]%10)cc9[nH]8)c7)c6)[nH]c5c4)[nH]c3c2)CC1 [Compound 2H-3G]	++
C[C@H](NC(=O)CCCOc1cccc(-c2nc3ccc(-c4nc5cc(N6CCN(C)CC6)ccc5[nH]4)cc3[nH]2)c1)C(=O)N[C@@H](C)C(=O)N[C@@H](C)C(=O)N[C@@H](C)C(=O)N[C@@H](CCCCNC(=O)CCCOc1cccc(-c2nc3cc(-c4nc5cc(N6CCN(C)CC6)ccc5[nH]4)ccc3[nH]2)c1)C(N)=O [Compound 2H-K4NH]	+++
